experimentNotes: protein stability index of a GFP-peptide fusion (yeast GPS) (PSI 1-4); higher = more stable; sorted into four equal gates, so the index is relative within each strain
measurementSetup: ubr1∆
recordedMetric: protein stability index
Answers are plain numbers.

DEAKDFIVSGTASDQLF [PUP3] : 2.92

Give protein stability index for each listed item.
1. IHLNELLTNDESAFENL [SNF12]
2. DYDVSKKASEISVSSRS [SRP14]
3. AGVEDVYTQSNGKTRTL [RPS2]
4. ASELDESKDSIQDLIVK [SMC3]
5. LGMGKAVEKTLALGCHF [POP7]

Solution:
[3.03, 2.98, 3.48, 3.33, 2.38]

State the recorded protein stability index for every item in the following list.
1. QCYKIYDLVILKSGLPL [YMR129W/POM152]
2. LVDKRIDMLPMLLGTDL [DIS3]
3. NVAVDIINFGEIEQNTE [RPN10]
4. STLQHFQETLDSTVVYP [MED8]
5. ESELSLLEETQAKLKKN [SMC4]
6. QEQLKQMDQQLQYTALT [ARP7]
7. MMVNNQTMQLIKNVQDL [SRB6]

Solution:
1: 1.29; 2: 2.34; 3: 3.14; 4: 3.17; 5: 3.11; 6: 3; 7: 3.03

###

Give measured protein stability index for each item. Keep answers brief.
experimentNotes: protein stability index of a GFP-peptide fusion (yeast GPS) (PSI 1-4); higher = more stable; sorted into four equal gates, so the index is relative within each strain
measurementSetup: pdr5∆
One number for each entry.

RYEEFADKVKLGRVRNH [RPC40] : 2.99
EHAKWGPAAAIEFEYDP [RPB3] : 3.01
VVSILEAGDSDILTTLA [RPL30] : 2.92
CEQQPSQEREFSLLVKA [SIN4] : 3.07
STSFSFNAPATGNGTTT [YOR098C/NUP1] : 2.97

Problem: Returns the measured protein stability index for the input sequence. Input: KAAISFGAKPEEQKSSD [YJL041W/NSP1]
Solution: 2.94

###

experimentNotes: protein stability index of a GFP-peptide fusion (yeast GPS) (PSI 1-4); higher = more stable; sorted into four equal gates, so the index is relative within each strain
measurementSetup: san1∆
recordedMetric: protein stability index

WSEITESMSYLPDPILK [MCD1] : 2.92
FNLNLPPSSFGRSHTRN [REC8] : 3.04
ALPDAVTIIEPKEEEPI [RPS3] : 3.06
NYELEKIADNISKDENE [YDL116W/NUP84] : 2.98

List the reported protein stability index of each sequence below.
1. EAELSSTKVENSAIIQN [YIL149C/MLP2]
2. SKRGNDKKHFNNKNKRV [RPC53]
3. KVISEILTKEVQGSTLA [RPS1A]
4. LPLLILENSSRSPRVVT [NUT1]
5. EDKQNIEINEDNSQDDQ [RRI2]
6. YLLSIWVKKFKWAGIKT [CYT1]
7. LVNIRTQTSKEQEIENN [ITC1]

Solution:
2.98
3.09
2.29
2.26
3.23
2.17
2.9

Please state, for each entry, its recorded protein stability index.
1. QLEGFESRKAFFLGYMI [RPB2]
2. RHTTGTGRMRYLKHVSR [RPL37A]
3. LVNGFSQSQQKLLKEKV [MED2]
4. TINISLSFSWAILLIIN [NUT1]
5. AYIKLLDQTKDTRITHL [SNF2]
6. ENELVITSIPKPLTENC [RMP1]

Solution:
1. 1.41
2. 3.55
3. 2.41
4. 1.93
5. 2.78
6. 3.39

Could I get protein stability index for every one of these entries?
1. IIKGTDVYSPEKGSWEQ [BRR2]
2. MLLLNIFISSDHEFVLI [YMR129W/POM152]
3. SSLLSRLISSKMPGGFT [FAS2]
4. LQRPTATDEESVRLQRF [CSN12]

Solution:
3.24
1.32
2.17
2.97
